Values were extracted from patent US4645769A.

protocol-details: Concentration in Blood Serum after subcutaneous dosing (bioassay using Escherichia coli)
Assay type: in vivo
test-context: mouse, sc, 1/2 hour, 25 mg/Kg subcutaneously, mice
Counter-ions that a name gives are not always drawn.
In plain terms, low concentration at 0.5 h, meaning strictly below 10000 ng/mL, gives Fulfilled, and everything else gives Not fulfilled.

Solved entries:
| compound | qualitative-label |
| --- | --- |
| C[n+]1ccc(SCC2=C(C(=O)[O-])N3C(=O)C(NC(=O)C(=NOC(C)(C)C(=O)O)c4csc(N)n4)C3OC2)cc1 (centres unmarked) [Compound 14, (Sodium Salt)] | Fulfilled |
| CC(C)(ON=C(C(=O)NC1C(=O)N2C(C(=O)[O-])=C(CSc3cc[n+](CC(F)(F)F)cc3)COC12)c1csc(N)n1)C(=O)O (centres unmarked) [Compound 16, (Sodium Salt)] | Not fulfilled |
| CC1OC2C(NC(=O)C(=NOCC(=O)O)c3csc(N)n3)C(=O)N2C(C(=O)[O-])=C1CSc1cc[n+](CC(=O)O)cc1 (centres unmarked) [Compound 9, (Sodium Salt)] | Not fulfilled |

[in] Is 10000 ng/mL strictly greater than the compound's reported concentration at 0.5 h? compound: CC1OC2C(NC(=O)C(=NOC(C)(C)C(=O)O)c3csc(N)n3)C(=O)N2C(C(=O)[O-])=C1CSc1cc[n+](C)cc1 (centres unmarked) [Compound 1, (Sodium Salt)]
[out] Not fulfilled

[in] is_below(concentration at 0.5 h, 10000 ng/mL) for CC(C)(O/N=C(\C(=O)N[C@@H]1C(=O)N2C(C(=O)[O-])=C(C[n+]3ccccc3)CS[C@H]12)c1csc(N)n1)C(=O)O [Ceftazidime, reference compound] ?
[out] Not fulfilled

---

Tested on: Staphylococcus aureus 209 P JC-1
protocol-details: Minimum Inhibitory Concentration (MIC), antibacterial spectrum in vitro
Format: cell-based
test-context: 209PJC1; Staphylococcus aureus 209 P JC-1; read-out: Minimum Inhibitory Concentration (MIC)
Counter-ions that a name gives are not always drawn.
attribute-measured: MIC (µg/mL)
Give bare numbers, in µg/mL.

| compound | study-target | attribute-measured | recorded-number |
| --- | --- | --- | --- |
| CC(C)(ON=C(C(=O)NC1C(=O)N2C(C(=O)[O-])=C(CSc3cc[n+](CC(F)(F)F)cc3)COC12)c1csc(N)n1)C(=O)O (stereo not drawn) [Compound 16, (Sodium Salt)] | Staphylococcus aureus 209 P JC-1 | MIC | 3.13 |

Please report MIC for every entry that follows.
1. CCON=C(C(=O)NC1C(=O)N2C(C(=O)[O-])=C(CSc3cc[n+](CC(=O)O)cc3)C(C)OC12)c1csc(N)n1 (stereo not drawn) [Compound 8, (Sodium Salt)]
2. CCN1CCN(C(=O)NC(C(=O)NC2C(=O)N3C(C(=O)[O-])=C(CSc4cc[n+](C)cc4)COC23)c2csc(N)n2)C(=O)C1=O (racemic) [Compound 20, (Sodium Salt)]
3. CO[C@@]1(NC(=O)C(C(=O)O)c2ccc(O)cc2)C(=O)N2C(C(=O)O)=C(CSc3nnnn3C)CO[C@@H]21 (stereo partly drawn) [Latamoxef, reference compound]
4. C[n+]1ccc(SCC2=C(C(=O)[O-])N3C(=O)C(NC(=O)C(=NOCC(=O)O)c4csc(N)n4)C3OC2)cc1 (stereo not drawn) [Compound 13, (Sodium Salt)]
5. CC1OC2C(NC(=O)C(=NOC(C)(C)C(=O)O)c3csc(N)n3)C(=O)N2C(C(=O)[O-])=C1CSc1cc[n+](CC(=O)O)cc1 (stereo not drawn) [Compound 5, (Sodium Salt)]
6. CC1OC2C(NC(=O)C(=NOC(C)(C)C(=O)O)c3csc(N)n3)C(=O)N2C(C(=O)[O-])=C1CSc1cc[n+](CC(F)(F)F)cc1 (stereo not drawn) [Compound 4, (Sodium Salt)]

[out]
0.39
0.39
3.13
1.56
12.5
1.56

Dear colleague, could you send me MIC for each of the items below? Thanks.
1. CCON=C(C(=O)NC1C(=O)N2C(C(=O)[O-])=C(CSc3cc[n+](CC(=O)O)cc3)COC12)c1csc(N)n1 (stereo not drawn) [Compound 12, (Sodium Salt)]
2. CC(C)(ON=C(C(=O)NC1C(=O)N2C(C(=O)[O-])=C(CSc3cc[n+](CCF)cc3)COC12)c1csc(N)n1)C(=O)O (stereo not drawn)

[out]
1. 0.39
2. 6.25
